System: Human immunodeficiency virus 1
MEASUREMENT DESCRIPTION: Antiviral activity against HIV1 SF162 infected in human TZM-bl cells assessed as inhibition of virus neutralization after 48 hrs by luciferase assay
Type: functional, organism-based
SETTINGS: Human immunodeficiency virus 1, SF162, TZM-bl, 48 h; read-out: IC50
OBSERVABLE: IC50 (µM)

>  <MOLECULE>
CCCCNc1nc(N)c2ncn([C@@H]3O[C@@]4(CO)CO[C@@H]3[C@@H]4OCc3ccccc3)c2n1

>  <NUMBER>
68

$$$$
>  <MOLECULE>
Cc1cn([C@H]2C[C@H](N=[N+]=[N-])[C@@H](CO)O2)c(=O)[nH]c1=O [ZIDOVUDINE]

>  <NUMBER>
0.078

$$$$

1: CN(Cc1ccccc1)c1nc(Cl)nc2c1ncn2[C@@H]1O[C@@]2(CO)CO[C@@H]1[C@@H]2O
2: OC[C@@]12CO[C@@H]([C@H](n3cnc4c(NCc5ccccc5)nc(Cl)nc43)O1)[C@@H]2OCc1ccccc1
3: CCNc1nc(N)c2ncn([C@@H]3O[C@@]4(CO)CO[C@@H]3[C@@H]4OCc3ccccc3)c2n1
Problem: Hello, I need these entries ordered by IC50, highest reading first. Thanks! Please reply with the labels ordered as requested. Many thanks.
Solution: 3, 1, 2
